biological target: UniProt:P23897; assay: biochemical; design: species or system Sprague-Dawley rat; conditions: read-out: % Inhibition of basal guanylate cyclase activity, basal; 1.0 mM
Assignment: determine reported inhibition at 1000 µM for the given molecules.
One number for each entry, in %.

Guide cases for inhibition at 1000 µM, answers given:
| Compound structure | Study target | inhibition at 1000 µM (%) |
| --- | --- | --- |
| N[C@H](CS)C(=O)O | UniProt:P23897 | 0 |
| N[C@@H](CSSC[C@H](N)C(=O)O)C(=O)O | UniProt:P23897 | 0 |
| NCCS | UniProt:P23897 | 0 |
| N[C@@H](CS)C(=O)O | UniProt:P23897 | 0 |
| CC(=O)N[C@@H](CS)C(=O)O | UniProt:P23897 | 0 |
| N[C@H](CSSC[C@@H](N)C(=O)O)C(=O)O | UniProt:P23897 | 0 |

Next, consider the following molecule.
// query inhibition at 1000 µM value for entry "NCCSSCCN"
45

----------
biological target: guanylate cyclase (Rattus norvegicus, UniProt P23897); assay: biochemical; design: species or system Sprague-Dawley rat; conditions: ST-activated (6 units/ml); 1.0 mM
Sequence (P23897 23-1072): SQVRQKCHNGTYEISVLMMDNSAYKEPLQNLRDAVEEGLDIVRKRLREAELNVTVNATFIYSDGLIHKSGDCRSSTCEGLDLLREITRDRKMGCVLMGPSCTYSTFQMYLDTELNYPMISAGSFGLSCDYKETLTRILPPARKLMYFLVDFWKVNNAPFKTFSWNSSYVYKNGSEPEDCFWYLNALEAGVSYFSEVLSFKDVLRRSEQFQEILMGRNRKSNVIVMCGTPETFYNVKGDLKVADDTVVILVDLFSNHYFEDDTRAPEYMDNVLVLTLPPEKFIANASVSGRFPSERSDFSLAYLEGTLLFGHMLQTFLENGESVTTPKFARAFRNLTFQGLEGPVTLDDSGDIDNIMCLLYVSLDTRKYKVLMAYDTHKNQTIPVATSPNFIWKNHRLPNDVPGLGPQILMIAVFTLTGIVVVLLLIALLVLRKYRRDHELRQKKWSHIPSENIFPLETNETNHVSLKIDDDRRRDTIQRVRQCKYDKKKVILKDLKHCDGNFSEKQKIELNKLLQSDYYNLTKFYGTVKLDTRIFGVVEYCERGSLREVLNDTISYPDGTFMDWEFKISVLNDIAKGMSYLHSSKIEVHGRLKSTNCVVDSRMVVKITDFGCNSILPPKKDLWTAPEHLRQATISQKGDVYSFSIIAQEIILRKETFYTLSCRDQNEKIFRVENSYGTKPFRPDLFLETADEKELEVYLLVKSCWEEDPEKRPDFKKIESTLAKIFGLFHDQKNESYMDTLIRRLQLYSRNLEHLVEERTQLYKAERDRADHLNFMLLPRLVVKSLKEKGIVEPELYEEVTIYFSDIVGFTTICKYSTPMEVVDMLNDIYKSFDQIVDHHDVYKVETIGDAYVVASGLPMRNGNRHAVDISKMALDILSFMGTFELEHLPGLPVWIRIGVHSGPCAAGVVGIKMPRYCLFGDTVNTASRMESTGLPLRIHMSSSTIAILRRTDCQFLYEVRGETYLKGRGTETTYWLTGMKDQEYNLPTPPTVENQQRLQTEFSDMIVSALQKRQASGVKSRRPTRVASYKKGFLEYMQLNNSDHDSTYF
Parameter measured: % Inhibition of ST-activated guanylate cyclase activity

| Molecule | Result |
| --- | --- |
| N[C@H](CS)C(=O)O [D-cysteine] | 16% |
| N[C@@H](CS)C(=O)O [L-cysteine] | 11% |
| CC(=O)N[C@@H](CS)C(=O)O [Acetylcysteine, acetylcysteine] | 14% |

Switching to the query record.
// lookup % Inhibition of ST-activated guanylate cyclase activity for NCCS [Cysteamine, cysteamine]
21%

----------
target: guanylate cyclase (Rattus norvegicus, UniProt P23897); assay: biochemical; design: species or system Sprague-Dawley rat; conditions: read-out: % Inhibition of ST-activated guanylate cyclase activity, ST-activated (6 units/ml); 1.0 mM
For each entry below, report its inhibition at 1000 µM value.
Numbers only, in %.

Worked cases, inhibition at 1000 µM given:
| Molecule | Study target | Parameter measured | Recorded number |
| --- | --- | --- | --- |
| N[C@@H](CSSC[C@H](N)C(=O)O)C(=O)O [L-cystine] | guanylate cyclase (Rattus norvegicus, UniProt P23897) | inhibition at 1000 µM | 39 |
| N[C@H](CSSC[C@@H](N)C(=O)O)C(=O)O [D-cystine] | guanylate cyclase (Rattus norvegicus, UniProt P23897) | inhibition at 1000 µM | 33 |

Proceed to the following item.
What does the record list as inhibition at 1000 µM for NCCSSCCN [Cystamine, cystamine] ?
73

----------
system: 8-bromo cyclic GMP-induced intestinal fluid secretion; parameters: species or system suckling mice; conditions: mouse, in vivo, sc
What Intestinal:Body Wt. Ratio, 8-bromo cyclic GMP-induced was measured for each of the following?
One number for each entry.

| Compound structure | Recorded number |
| --- | --- |
| N[C@@H](CCSC[C@H](N)C(=O)O)C(=O)O | 0.1175 |
| N[C@H](CS)C(=O)O | 0.1155 |
| NCCS | 0.1071 |
| CC(=O)N[C@@H](CS)C(=O)O | 0.1024 |

Take each entry in turn and give its Intestinal:Body Wt. Ratio, 8-bromo cyclic GMP-induced.
1. N[C@@H](CSSC[C@H](N)C(=O)O)C(=O)O
2. N[C@@H](CS)C(=O)O

1. 0.1043
2. 0.1051

Hi there! I need Intestinal:Body Wt. Ratio, 8-bromo cyclic GMP-induced for each item below, if you can.
1. NCCSSCCN
2. N[C@H](CSSC[C@@H](N)C(=O)O)C(=O)O

1. 0.1115
2. 0.1001
